Listed below: relative viability values for each entry.
system: PC-3 [JPC-3]; experiment: relative viability (nuclei count vs DMSO), 5 days (fraction); higher = more cells survive; conditions: first compound 0.8 µM

COc1nc(C)cnc1NS(=O)(=O)c1cccnc1-c1ccc(-c2nnco2)cc1 [Zibotentan] + Nc1ncn([C@H]2C[C@H](O)[C@@H](CO)O2)c(=O)n1 [Decitabine] (partner 2 µM)    0.85
O=c1cc(-c2cccc3c2Sc2ccccc2S3)oc(N2CCOCC2)c1 + COc1cc2c(Oc3ccc(NC(=O)C4(C(=O)Nc5ccc(F)cc5)CC4)cc3F)ccnc2cc1OCCCN1CCOCC1 [Foretinib] (partner 0.25 µM)    1.16

Next up:
Exam item: relative viability lookup needed for O=c1cc(-c2cccc3c2Sc2ccccc2S3)oc(N2CCOCC2)c1 + COc1cccc2cc(-c3nc([C@H]4CC[C@H](C(=O)O)CC4)n4ncnc(N)c34)[nH]c12 [OSI-027] (partner 0.5 µM) , thanks.
Marked response: 0.783

====

test system: LCLC-97TM1; assay: relative viability (nuclei count vs DMSO), 5 days (fraction); higher = more cells survive; details: first compound 2.53 µM
Experimental Readout: relative viability
Answer as a number with no unit attached.

Reference set (2 entries):
COc1nc(C)cnc1NS(=O)(=O)c1cccnc1-c1ccc(-c2nnco2)cc1 [Zibotentan] + CC(=O)Nc1cccc(-n2c(=O)n(C3CC3)c(=O)c3c(Nc4ccc(I)cc4F)n(C)c(=O)c(C)c32)c1 [Trametinib] (partner 0.02 µM)    0.2
O=c1cc(-c2cccc3c2Sc2ccccc2S3)oc(N2CCOCC2)c1 + N=C(N)NC(=N)NCCc1ccccc1 [Phenformin] (partner 250 µM)    0.418

Exam item: Give the reported relative viability for COc1nc(C)cnc1NS(=O)(=O)c1cccnc1-c1ccc(-c2nnco2)cc1 [Zibotentan] + C[C@]1(O)C[C@@H](c2nc(-c3ccc4ccc(-c5ccccc5)nc4c3)c3c(N)nccn32)C1 [Linsitinib] (partner 1 µM) (system: LCLC-97TM1).
Marked response: 0.215

====

test system: NCI-H441; experiment: relative viability (nuclei count vs DMSO), 5 days (fraction); higher = more cells survive; details: first compound 0.01 µM
Experimental Readout: relative viability
Give a plain numeric answer without units written out.

Here are 2 compounds together with their reported answers.
O=c1cc(N2CCOCC2)oc2c(-c3cccc4c3sc3ccccc34)cccc12 + CC(C)C[C@H](NC(=O)[C@H](Cc1ccccc1)NC(=O)c1cnccn1)B(O)O [Bortezomib] (partner 0.002 µM)    0.443
CCN(CC)CCCCNc1ncc2cc(-c3cc(OC)cc(OC)c3)c(NC(=O)NC(C)(C)C)nc2n1 + C[C@]1(O)C[C@@H](c2nc(-c3ccc4ccc(-c5ccccc5)nc4c3)c3c(N)nccn32)C1 [Linsitinib] (partner 1 µM)    0.626

Exam item: So what relative viability did O=c1cc(N2CCOCC2)oc2c(-c3cccc4c3sc3ccccc34)cccc12 + O=C(CCCCCCC(=O)Nc1ccccc1)NO [Vorinostat] (partner 1 µM) get with NCI-H441?
Marked response: 0.731

Exam item: What reported relative viability corresponds to O=c1cc(N2CCOCC2)oc2c(-c3cccc4c3sc3ccccc34)cccc12 + N=C(N)NC(=N)NCCc1ccccc1 [Phenformin] (partner 250 µM) on NCI-H441?
Marked response: 0.862

====

relative viability: recorded values
system: NCI-H1734; assay: relative viability (nuclei count vs DMSO), 5 days (fraction); higher = more cells survive; conditions: first compound 0.8 µM
Simply state the number, no unit and no words.

As a guide, the following entries are already answered.
O=c1cc(-c2cccc3c2Sc2ccccc2S3)oc(N2CCOCC2)c1 + CC(C)C[C@H](NC(=O)[C@H](Cc1ccccc1)NC(=O)c1cnccn1)B(O)O [Bortezomib] (partner 0.002 µM)    1.05
COc1nc(C)cnc1NS(=O)(=O)c1cccnc1-c1ccc(-c2nnco2)cc1 [Zibotentan] + COc1cc2c(Oc3ccc(NC(=O)C4(C(=O)Nc5ccc(F)cc5)CC4)cc3F)ccnc2cc1OCCCN1CCOCC1 [Foretinib] (partner 0.25 µM)    0.883
O=c1cc(-c2cccc3c2Sc2ccccc2S3)oc(N2CCOCC2)c1 + NC(=O)Nc1cc(-c2cccc(F)c2)sc1C(=O)N[C@H]1CCCNC1 [AZD7762] (partner 0.2 µM)    0.581

Exam item: What measured relative viability goes with COc1nc(C)cnc1NS(=O)(=O)c1cccnc1-c1ccc(-c2nnco2)cc1 [Zibotentan] + Cc1nc(NC(=O)N2CCC[C@H]2C(N)=O)sc1-c1ccnc(C(C)(C)C(F)(F)F)c1 [Alpelisib] (partner 2 µM) ?
Marked response: 0.681

Exam item: Looking for the measured relative viability of O=c1cc(-c2cccc3c2Sc2ccccc2S3)oc(N2CCOCC2)c1 + CC1(C)CCC(c2ccc(Cl)cc2)=C(CN2CCN(c3ccc(C(=O)NS(=O)(=O)c4ccc(N[C@H](CCN5CCOCC5)CSc5ccccc5)c(S(=O)(=O)C(F)(F)F)c4)cc3)CC2)C1 [Navitoclax] (partner 0.5 µM) , can you help?
Marked response: 1.06

Exam item: Consider the molecule O=c1cc(-c2cccc3c2Sc2ccccc2S3)oc(N2CCOCC2)c1 + COc1cc2c(Oc3ccc(NC(=O)C4(C(=O)Nc5ccc(F)cc5)CC4)cc3F)ccnc2cc1OCCCN1CCOCC1 [Foretinib] (partner 0.25 µM) and give its measured relative viability.
Marked response: 0.99

Exam item: Param item = O=c1cc(-c2cccc3c2Sc2ccccc2S3)oc(N2CCOCC2)c1 + C[C@]1(O)C[C@@H](c2nc(-c3ccc4ccc(-c5ccccc5)nc4c3)c3c(N)nccn32)C1 [Linsitinib] (partner 1 µM) ; retrieve measured relative viability.
Marked response: 1

Exam item: Any idea what its relative viability is? The molecule is COc1nc(C)cnc1NS(=O)(=O)c1cccnc1-c1ccc(-c2nnco2)cc1 [Zibotentan] + CCNC(=O)c1noc(-c2cc(C(C)C)c(O)cc2O)c1-c1ccc(CN2CCOCC2)cc1 [Luminespib] (partner 0.01 µM)
Marked response: 0.195

Exam item: Record request: relative viability value, item COc1nc(C)cnc1NS(=O)(=O)c1cccnc1-c1ccc(-c2nnco2)cc1 [Zibotentan] + CS(=O)(=O)N1CCN(Cc2cc3nc(-c4cccc5[nH]ncc45)nc(N4CCOCC4)c3s2)CC1 [Pictilisib] (partner 1 µM)
Marked response: 0.461

Entry source: the supplement of paper PMC10307832
